property: melting point (°C)

In [3]: df
Out[3]:
                                   molecule  endpoint_result
0  CCC(CC)/C(N)=C(\C#N)C(=O)NC(C)C [Example 6.5]              164

A = CCC(CC)/C(N)=C(\C#N)C(=O)OCC1CC1 [Example 4.13]
B = CCC(CC)/C(N)=C(\C#N)C(=O)OC1CCCO1 (centres unmarked) [Example 4.43]
Query: Look at A and B . Which one has the lower recorded melting point number? Give the label under which the chosen entry appears.
Result: A
(A: 125 °C, B: 180 °C)

====

property: melting point (°C)

Example entries begin here.
                                   compound       property  endpoint_result
0  CCC(CC)/C(N)=C(\C#N)C(=O)OC1CCCC1 [Example 4.11]  melting point              140
1  CCC(CC)/C(N)=C(\C#N)C(=O)NC [Example 6.2]  melting point              146
2  CCNC(=O)/C(C#N)=C(\N)C(CC)CC [Example 6.29]  melting point              124

1 = CCC(CC)/C(N)=C(\C#N)C(=O)OCC(F)(F)F [Example 4.25]
2 = CCC(CC)/C(N)=C(\C#N)C(=O)O [Example 4.42]
Query: Look at 1 and 2 . Which one has the lower recorded melting point number? Give the label under which the chosen entry appears.
Result: 1
(1: 115 °C, 2: 165 °C)

====

property: melting point (°C)

                     structure_smiles  endpoint_result
0     CCC(CC)/C(N)=C(\C#N)C(=O)SC(C)C              115
1          CCC(CC)/C(N)=C(\C#N)C(N)=O              125
2      CCC(CC)/C(N)=C(\C#N)C(=O)N(C)C              132
3  CCC(CC)/C(N)=C(\C#N)C(=O)OC1CCCCC1              154

Origin of values: patent US20050009706A1
